Target: T1, mouse 129 SIRP-α D1 domain (mouse (129 strain), UniProt P97797 32-150)
T1 construct: also called m129
T1 chain: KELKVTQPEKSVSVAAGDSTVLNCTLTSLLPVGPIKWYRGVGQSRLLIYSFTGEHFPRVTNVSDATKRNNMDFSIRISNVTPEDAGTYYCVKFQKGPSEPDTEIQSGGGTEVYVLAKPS
Experiment: SPR, ProteOn, antibody on chip
property-label: koff (s⁻¹)
The reply should be a number in s⁻¹, with the unit left off.

These solved cases illustrate the format of a correct answer.
binder	measured-result
AB21c (antibody, mouse IgG2a, V domains shown, Full-length mouse IgG2a) VH: DVQLVESGGGVVRPGESLRLSCAASGFTFSSNAMSWVRQAPGKGLEWLAGISAGGSDTYYPASVKGRFTISRDNSKNTLYLQMNTLTAEDTAVYYCARETWNHLFDYWGLGTLVTVSS VL: ALTQPASVSANPGETVKIACSGGDYYSYYYGWYQQKAPGSALVTVIYSDDKRPSDIPSRFSGSASGSTATLTITGVRAEDEAVYYCGGYDYSTYANAFGAGTTLTVL	3.31e-05
AB27c (antibody, mouse IgG2a, V domains shown, Full-length mouse IgG2a) VH: DVQLVESGGGVVRPGESLRLSCAVSGFRFSSYAMSWVRQAPGKGLEWVSGISSGGDTYYVDSVKGRFTISRDNSKNTLYLQVNSLTAEDTAIYYCARETWNHLFDYWGLGTLVTVSS VL: ALTQPASVSADLGETVKITCSGGDSSSHYYGWYQQKSPGSAPVTVIYSDDERPSDIPSRFSGSASGSTATLTITGVRVEDEAIYYCGAYDGSTYANTFGAGTTLTVL	0.000101
AB66c (antibody, mouse IgG2a, V domains shown, Full-length mouse IgG2a) VH: DVQLVESGGGVVRPGESLRLSCAASGFTFSSYAMSWVRQAPGKGLEWLAGISAGGSDTYYIDSVKGRFTISRDNPKNSLYLQMSSLTAEDTAVYYCARETWNHLFDYWGLGTLVTVSS VL: ALTQPASVSANPGETVKITCSGGDYYSTYYAWYQQKSPGSAPVTVIHSDDKRPSDIPSRFSGSASGSAATLIITGVRVEDEAVYYCGGYDGRTYINTFGAGTTLTVL	1.98e-05

Data request, read-out koff, for AB25c (antibody, mouse IgG2a, V domains shown, Full-length mouse IgG2a) VH: DVQLVESGGGVVRPGESLRLSCEASGFTFSSNAMSWVRQAPGKGLEWVAGISSGSDTYYGDSVKGRLTISRDNSKNILYLQMNSLTAEDTAVYYCARETWNHLFDYWGLGTLVTVSS VL: ALTQPASVSANPGETVEITCSGGSYSSYYYAWYQQKSPGSAPVTLIYSDDKRPSNIPSRFSGSASGSTATLTITGVRAEDEAVYFCGGYDQSSYTNPFGAGTTLTVL
2.07e-05

Data request, read-out koff, for AB3c (antibody, mouse IgG2a, V domains shown, Full-length mouse IgG2a) VH: AVTLDESGGGLQTPGGALSLVCKASGFIFSDYGMNWVRQAPGKGLEFVAQITSGSRTYYGAAVKGRATISRDNRQSTVKLQLNNLRAEDTGIYFCARDFGSGVGSIDAWGNGTEVIVSS VL: ALTQPASVSANLGGTVKITCSGSRGRYGWYQQRSPGSAPVTVIYRDNQRPSNIPSRFSSSTSGSTSTLTITGVQADDESVYFCGSYDGSIDIFGAGTTLTVL
0.0118

Values compiled from patent US20210363269A1.
